# maps each entry to its clearance
assay.summary: Pharmacokinetics in Yucatan mini-pigs, single subcutaneous or intravenous dose
Assay type: in vivo
run.parameters: male, Yucatan mini-pig, minipig, plasma, iv, 19 nmol/kg, single intravenous dose 19 nmol/kg, individual animal
*1 amine or outer side, *2 acyl side, *3 side chain or, on linkers, in order; H or OH if unused. Side-chain parts run from the residue outwards. [ ]: non-standard residue; d: D form. The star is where a group is joined. C20 diacid = O=C(O)CCCCCCCCCCCCCCCCCCC(=O)*; γGlu = O=C(O)[C@H](CCC(=O)[*:2])N[*:1]; εLys = N[C@@H](CCCCN[*:1])C(=O)[*:2]; αMeL = CC(C)C[C@](C)(N)C(=O)O; AEEA = NCCOCCOCC(=O)O; Aib = CC(C)(N)C(=O)O
quantity.kind: clearance (mL/day/kg)

substance	measured
Ac-GSPSIVTS[αMeL]DVPT[Aib][αMeL]LQKLLEQERAEKARQQAK([γGlu-AEEA-εLys-C20 diacid])EAAEILAQV-NH2 [SEQ ID NO: 2]	15.6
Ac-PPPIVTS[αMeL]DVPT[Aib][αMeL]LQKLLEQERAEKARQQAK([γGlu-AEEA-εLys-C20 diacid])EAAEILAQV-NH2 [SEQ ID NO: 48]	13.9
{C20 diacid-εLys-AEEA-γGlu}-GSPSIVTS[αMeL]DVPT[Aib][αMeL]LQKILEQERAEKARQQATEAAEILAQV-NH2 [SEQ ID NO: 25]	10.9
Ac-GSPSIVTS[αMeL]DVPT[Aib][αMeL]LQKILEQERAEKARQQAK([γGlu-AEEA-εLys-C20 diacid])EAAEILAQV-NH2 [SEQ ID NO: 1]	14

###

assay.summary: Pharmacokinetics in Cynomolgus monkeys, single subcutaneous or intravenous dose
Assay type: in vivo
run.parameters: both sexes, cynomolgus monkey, plasma, single intravenous dose 187 nmol/kg, Mean, read-out: C0
Procedure: Plasma concentrations of compounds were determined by LC/MS methods. For each assay, the compound and an internal standard (IS), were extracted from 100% mouse, rat, pig, or monkey plasma (70 μL) using Isopropanol-Methanol. Two distinct layers were formed upon centrifugation with the compound and the IS located in the supernatant layer. […] The column effluent was directed into a Thermo Fisher Scientific Orbitrap (Exploris 240) mass spectrometer for detection and quantitation. […]
*1 amine or outer side, *2 acyl side, *3 side chain or, on linkers, in order; H or OH if unused. Side-chain parts run from the residue outwards. [ ]: non-standard residue; d: D form. The star is where a group is joined. C20 diacid = O=C(O)CCCCCCCCCCCCCCCCCCC(=O)*; γGlu = O=C(O)[C@H](CCC(=O)[*:2])N[*:1]; εLys = N[C@@H](CCCCN[*:1])C(=O)[*:2]; αMeL = CC(C)C[C@](C)(N)C(=O)O; AEEA = NCCOCCOCC(=O)O; Aib = CC(C)(N)C(=O)O
quantity.kind: C0 (µM)

substance	measured
Ac-GSPSIVTS[αMeL]DVPT[Aib][αMeL]LQKILEQERAEKARQQAK([γGlu-AEEA-εLys-C20 diacid])EAAEILAQV-NH2 [SEQ ID NO: 1]	4.6

###

assay.system: human CRHR2 (Homo sapiens, UniProt Q13324)
Construct: expressed in transfected cells
Sequence (Q13324 1-438 isoform Q13324-2): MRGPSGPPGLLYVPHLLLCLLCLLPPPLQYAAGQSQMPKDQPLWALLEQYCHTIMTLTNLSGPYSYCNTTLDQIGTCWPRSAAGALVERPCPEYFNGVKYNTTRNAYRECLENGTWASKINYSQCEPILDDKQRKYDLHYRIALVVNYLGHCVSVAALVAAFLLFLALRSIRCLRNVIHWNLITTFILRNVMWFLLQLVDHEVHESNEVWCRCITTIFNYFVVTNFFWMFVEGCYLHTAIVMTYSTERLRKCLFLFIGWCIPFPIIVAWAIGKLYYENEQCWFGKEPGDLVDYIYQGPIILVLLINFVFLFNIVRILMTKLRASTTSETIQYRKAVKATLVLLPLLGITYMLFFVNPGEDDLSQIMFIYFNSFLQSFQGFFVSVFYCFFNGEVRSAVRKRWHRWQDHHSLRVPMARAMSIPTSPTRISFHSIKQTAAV
assay.summary: Human CRHR2 cAMP assay (HTRF) in HEK293 cells stably expressing human CRHR2
Assay type: cell-based
run.parameters: HEK293 cells overexpressing human CRHR2; relative EC50, maximum 10 nM human UCN2; mean ± SE; read-out: hCRHR2 cAMP EC50 (pM, ± SE)
*1 amine or outer side, *2 acyl side, *3 side chain or, on linkers, in order; H or OH if unused. Side-chain parts run from the residue outwards. [ ]: non-standard residue; d: D form. The star is where a group is joined. C20 diacid = O=C(O)CCCCCCCCCCCCCCCCCCC(=O)*; γGlu = O=C(O)[C@H](CCC(=O)[*:2])N[*:1]; εLys = N[C@@H](CCCCN[*:1])C(=O)[*:2]; αMeL = CC(C)C[C@](C)(N)C(=O)O; Dap = NC[C@H](N)C(=O)O; AEEA = NCCOCCOCC(=O)O; Aib = CC(C)(N)C(=O)O; Ahx = NCCCCCC(=O)O; βAla = NCCC(=O)O

substance	EC50, pM
Ac-PPPIVTS[αMeL]D[dV]PT[Aib][αMeL]LQKLLEQERAEKARQQAK([γGlu-AEEA-εLys-C20 diacid])EAAEILAQV-NH2 [SEQ ID NO: 47]	17.5
Ac-PPPIVTS[αMeL]DVPT[Aib][αMeL]LQKLLEQERAEKARQQAK([γGlu-AEEA-εLys-C20 diacid])EAAEILAQV-NH2 [SEQ ID NO: 48]	26.7
Ac-GSPSIVTS[αMeL]DVPT[Aib][αMeL]LQKILEQERAEKARQQAK([γGlu-AEEA-Ahx-C20 diacid])EAAEILAQV-NH2 [SEQ ID NO: 5]	10.7
Ac-GSPSIVTS[αMeL]DVPT[Aib][αMeL]LQKILEQERAEKARQQAK([Gly-βAla-βAla-βAla-γGlu-C20 diacid])EAAEILAQV-NH2 [SEQ ID NO: 7]	10.6
{C20 diacid}-[Dap][AEEA][γGlu]GSPSIVTS[αMeL]DVPT[Aib][αMeL]LEKILEQERAEKARQQATEAAEILAQV-NH2 [SEQ ID NO: 52]	6.6
Ac-GSPSIVTS[αMeL]DVPT[Aib][αMeL]LQKILEQERAEKARQQAKEAAEILAQV-NH2 [SEQ ID NO: 20]	15.3
